- subject of test: Neuromedin-K receptor (Homo sapiens, UniProt P29371)
- assay comment: Antagonist activity at human recombinant NK3 receptor expressed in human U20S cells assessed as effect on NKB-induced intracellular calcium level by FLIPR assay
observed property: Ki (nM)

[
  {
    "compound": "Cc1cc(F)ccc1-c1cc(C2CNC(=O)C2)ncc1N(C)C(=O)C(C)(C)c1cc(C(F)(F)F)cc(C(F)(F)F)c1 (stereo not drawn)",
    "Ki [nM]": 31.6
  }
]

1. Cc1cc(F)ccc1-c1cc(C2NC(=O)CC2CO)ncc1N(C)C(=O)C(C)(C)c1cc(C(F)(F)F)cc(C(F)(F)F)c1 (single isomer, unassigned; 8a)
2. Cc1cc(F)ccc1-c1cc(C2NC(=O)CC2CO)ncc1N(C)C(=O)C(C)(C)c1cc(C(F)(F)F)cc(C(F)(F)F)c1 (single isomer, unassigned; 8b)
Lookup: In terms of reported Ki, does 1 or 2 have the smaller number? Returns: label corresponding to the selected item.
Found: 1
(1: 39.8 nM, 2: 501 nM)

----------
- subject of test: Substance-P receptor (Homo sapiens, UniProt P25103)
- Sequence (P25103 whole entry): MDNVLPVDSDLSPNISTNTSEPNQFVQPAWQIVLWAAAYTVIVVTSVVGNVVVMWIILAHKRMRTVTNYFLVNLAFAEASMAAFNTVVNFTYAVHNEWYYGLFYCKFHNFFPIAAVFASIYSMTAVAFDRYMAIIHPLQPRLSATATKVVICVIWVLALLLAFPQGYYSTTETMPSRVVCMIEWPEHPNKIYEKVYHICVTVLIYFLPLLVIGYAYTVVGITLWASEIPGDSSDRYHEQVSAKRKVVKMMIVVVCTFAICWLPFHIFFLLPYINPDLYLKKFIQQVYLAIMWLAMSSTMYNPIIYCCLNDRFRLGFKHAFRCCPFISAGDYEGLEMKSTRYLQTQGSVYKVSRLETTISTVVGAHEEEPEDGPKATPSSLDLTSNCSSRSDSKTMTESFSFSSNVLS
- assay comment: Antagonist activity at human recombinant NK1 receptor expressed in human U20S cells assessed as effect on substance P-induced intracellular calcium level by FLIPR assay
- Format: functional, cell-based, U2OS
observed property: Ki (nM)

[
  {
    "compound": "Cc1cc(F)ccc1-c1cc(C2CNC(=O)C2CO)ncc1N(C)C(=O)C(C)(C)c1cc(C(F)(F)F)cc(C(F)(F)F)c1 (single isomer, unassigned; enantiomer 2)",
    "Ki [nM]": 0.158
  }
]

I. Cc1cc(F)ccc1-c1cc(C2NC(=O)CC2CO)ncc1N(C)C(=O)C(C)(C)c1cc(C(F)(F)F)cc(C(F)(F)F)c1 (single isomer, unassigned; 8b)
II. Cc1cc(F)ccc1-c1cc(C2CC(=O)NC2(CO)CO)ncc1N(C)C(=O)C(C)(C)c1cc(C(F)(F)F)cc(C(F)(F)F)c1 (racemic)
III. Cc1cc(F)ccc1-c1cc(C2NC(=O)CC2CO)ncc1N(C)C(=O)C(C)(C)c1cc(C(F)(F)F)cc(C(F)(F)F)c1 (single isomer, unassigned; 9a)
Lookup: Sort by Ki, descending. Sort and list the labels as requested.
Found: I, III, II
(I: 0.501 nM, III: 0.251 nM, II: 0.1 nM)

----------
- subject of test: Substance-P receptor (Homo sapiens, UniProt P25103)
- assay comment: Antagonist activity at human recombinant NK1 receptor expressed in human U20S cells assessed as substance P maximal stimulation at 1 nM by FLIPR assay
- Assay type: functional, cell-based
- experimental conditions: U2OS
observed property: Emax (%)

[
  {
    "molecule": "Cc1cc(F)ccc1-c1cc(C2CNC(=O)C2CO)ncc1N(C)C(=O)C(C)(C)c1cc(C(F)(F)F)cc(C(F)(F)F)c1 (single isomer, unassigned; enantiomer 1)",
    "assay result": 103
  }
]

1. Cc1cc(F)ccc1-c1cc(C2NC(=O)CC2CO)ncc1N(C)C(=O)C(C)(C)c1cc(C(F)(F)F)cc(C(F)(F)F)c1 (single isomer, unassigned; 9a)
2. Cc1cc(F)ccc1-c1cc(C2NC(=O)CC2CO)ncc1N(C)C(=O)C(C)(C)c1cc(C(F)(F)F)cc(C(F)(F)F)c1 (single isomer, unassigned; 8a)
Lookup: Between 1 and 2 , whose recorded Emax is greater? Returns: label corresponding to the selected item.
Found: 1

A. Cc1cc(F)ccc1-c1cc(C2CN(C)C(=O)C2CO)ncc1N(C)C(=O)C(C)(C)c1cc(C(F)(F)F)cc(C(F)(F)F)c1 (single isomer, unassigned)
B. Cc1cc(F)ccc1-c1cc(C2CNC(=O)C2CO)ncc1N(C)C(=O)C(C)(C)c1cc(C(F)(F)F)cc(C(F)(F)F)c1 (racemic)
Lookup: Between A and B , whose recorded Emax is greater? Returns: label corresponding to the selected item.
Found: B

----------
- subject of test: Substance-P receptor (Homo sapiens, UniProt P25103)
- assay comment: Antagonist activity at human recombinant NK1 receptor expressed in human U20S cells assessed as substance P maximal stimulation at 3 nM by FLIPR assay
- Format: functional, cell-based
- experimental conditions: U2OS
observed property: Emax (%)

I. Cc1cc(F)ccc1-c1cc(C2CN(C)C(=O)C2CO)ncc1N(C)C(=O)C(C)(C)c1cc(C(F)(F)F)cc(C(F)(F)F)c1 (single isomer, unassigned)
II. Cc1cc(F)ccc1-c1cc(C2CNC(=O)C2CO)ncc1N(C)C(=O)C(C)(C)c1cc(C(F)(F)F)cc(C(F)(F)F)c1 (single isomer, unassigned; enantiomer 2)
III. Cc1cc(F)ccc1-c1cc(C2CNC(=O)C2CO)ncc1N(C)C(=O)C(C)(C)c1cc(C(F)(F)F)cc(C(F)(F)F)c1 (single isomer, unassigned; enantiomer 1)
Lookup: Rank the listed compounds according to Emax, from the largest value downward. Sort and list the labels as requested.
Found: II, III, I
(II: 37%, III: 19%, I: 5%)

----------
- subject of test: UniProtKB P25103
- assay comment: Antagonist activity at human recombinant NK1 receptor expressed in human U20S cells assessed as effect on substance P-induced intracellular calcium level by FLIPR assay
observed property: Ki (nM)

[
  {
    "compound": "Cc1cc(F)ccc1-c1cc(C2CNC(=O)C2CO)ncc1N(C)C(=O)C(C)(C)c1cc(C(F)(F)F)cc(C(F)(F)F)c1 (single isomer, unassigned; enantiomer 1)",
    "assay result": 0.0501
  },
  {
    "compound": "Cc1cc(F)ccc1-c1cc(C2NC(=O)CC2CO)ncc1N(C)C(=O)C(C)(C)c1cc(C(F)(F)F)cc(C(F)(F)F)c1 (single isomer, unassigned; 8a)",
    "assay result": 0.0794
  },
  {
    "compound": "Cc1cc(F)ccc1-c1cc(C2CN(C)C(=O)C2CO)ncc1N(C)C(=O)C(C)(C)c1cc(C(F)(F)F)cc(C(F)(F)F)c1 (single isomer, unassigned)",
    "assay result": 0.0631
  }
]

----------
- subject of test: Neuromedin-K receptor (Homo sapiens, UniProt P29371)
- assay comment: Antagonist activity at human recombinant NK3 receptor expressed in human U20S cells assessed as effect on NKB-induced intracellular calcium level by FLIPR assay
observed property: Ki (nM)

Here are 5 molecules together with their reported answers.
[
  {
    "molecule": "Cc1cc(F)ccc1-c1cc(C2CC(=O)NC2(CO)CO)ncc1N(C)C(=O)C(C)(C)c1cc(C(F)(F)F)cc(C(F)(F)F)c1 (single isomer, unassigned; enantiomer 2)",
    "subject of test": "Neuromedin-K receptor (Homo sapiens, UniProt P29371)",
    "Ki [nM]": 631
  },
  {
    "molecule": "Cc1cc(F)ccc1-c1cc(C2CNC(=O)C2CO)ncc1N(C)C(=O)C(C)(C)c1cc(C(F)(F)F)cc(C(F)(F)F)c1 (single isomer, unassigned; enantiomer 1)",
    "subject of test": "Neuromedin-K receptor (Homo sapiens, UniProt P29371)",
    "Ki [nM]": 79.4
  },
  {
    "molecule": "Cc1cc(F)ccc1-c1cc(C2CC(=O)NC2CO)ncc1N(C)C(=O)C(C)(C)c1cc(C(F)(F)F)cc(C(F)(F)F)c1 (single isomer, unassigned; 22b)",
    "subject of test": "Neuromedin-K receptor (Homo sapiens, UniProt P29371)",
    "Ki [nM]": 20
  },
  {
    "molecule": "Cc1cc(F)ccc1-c1cc(C2NC(=O)CC2CO)ncc1N(C)C(=O)C(C)(C)c1cc(C(F)(F)F)cc(C(F)(F)F)c1 (single isomer, unassigned; 9a)",
    "subject of test": "Neuromedin-K receptor (Homo sapiens, UniProt P29371)",
    "Ki [nM]": 5.01
  },
  {
    "molecule": "Cc1cc(F)ccc1-c1cc(C2CNC(=O)C2CO)ncc1N(C)C(=O)C(C)(C)c1cc(C(F)(F)F)cc(C(F)(F)F)c1 (single isomer, unassigned; enantiomer 2)",
    "subject of test": "Neuromedin-K receptor (Homo sapiens, UniProt P29371)",
    "Ki [nM]": 1.58
  }
]

a. Cc1cc(F)ccc1-c1cc(C2CC(=O)NC2(CO)CO)ncc1N(C)C(=O)C(C)(C)c1cc(C(F)(F)F)cc(C(F)(F)F)c1 (racemic)
b. Cc1cc(F)ccc1-c1cc(C2CC(=O)NC2CO)ncc1N(C)C(=O)C(C)(C)c1cc(C(F)(F)F)cc(C(F)(F)F)c1 (single isomer, unassigned; 21b)
Lookup: Between a and b , whose recorded Ki is greater? Returns: label corresponding to the selected item.
Found: b

----------
- subject of test: Neuromedin-K receptor (Homo sapiens)
- Sequence (P29371 whole entry): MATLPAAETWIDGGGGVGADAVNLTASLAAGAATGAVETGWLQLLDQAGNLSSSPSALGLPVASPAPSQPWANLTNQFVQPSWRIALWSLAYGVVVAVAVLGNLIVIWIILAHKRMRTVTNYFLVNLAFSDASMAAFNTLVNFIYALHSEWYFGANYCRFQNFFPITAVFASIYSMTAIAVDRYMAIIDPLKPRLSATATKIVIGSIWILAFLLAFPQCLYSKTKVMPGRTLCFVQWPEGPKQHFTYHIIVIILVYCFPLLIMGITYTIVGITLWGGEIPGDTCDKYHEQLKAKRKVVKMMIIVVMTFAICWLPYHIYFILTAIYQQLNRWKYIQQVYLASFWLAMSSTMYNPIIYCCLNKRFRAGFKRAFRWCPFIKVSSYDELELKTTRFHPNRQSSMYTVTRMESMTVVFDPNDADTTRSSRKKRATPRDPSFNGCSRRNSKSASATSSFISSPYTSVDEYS
- assay comment: Antagonist activity at human recombinant NK3 receptor expressed in human U20S cells assessed as effect on NKB-induced intracellular calcium level by FLIPR assay
observed property: Ki (nM)

[
  {
    "compound": "Cc1cc(F)ccc1-c1cc(C2CC(=O)NC2(CO)CO)ncc1N(C)C(=O)C(C)(C)c1cc(C(F)(F)F)cc(C(F)(F)F)c1 (single isomer, unassigned; enantiomer 1)",
    "Ki, nM": 6.31
  }
]

A. Cc1cc(F)ccc1-c1cc(C2CN(C)C(=O)C2CO)ncc1N(C)C(=O)C(C)(C)c1cc(C(F)(F)F)cc(C(F)(F)F)c1 (single isomer, unassigned)
B. Cc1cc(F)ccc1-c1cc(C2CC(=O)NC2CO)ncc1N(C)C(=O)C(C)(C)c1cc(C(F)(F)F)cc(C(F)(F)F)c1 (single isomer, unassigned; 21a)
Lookup: Between A and B , whose recorded Ki is greater? Returns: label corresponding to the selected item.
Found: B
